test system: UO-31 renal; experiment: NCI-60 one-dose screen, 48 h (100 = growth as untreated, 0 = no growth, -100 = all killed); details: 10 µM unless noted
This is part of a sample that, as a whole, favours compounds with a hit. Of some 83,000 tested, about 20% had one in any assay.
measurementKind: growth (%)
Please reply with the bare figure in % and do not write the unit itself.

Query block: Please report the measured growth for COc1cc(/C=C/C(=O)c2nc3cc(F)ccc3nc2C)cc(OC)c1OC
Result block: 61.1

Query block: Note growth for the molecule shown: CCN(CC)CCOc1ccc(NC(=O)C(C(C)C)N2C(=O)/C(=C/c3ccc(Br)cc3)SC2=S)cc1 (stereo not given)
Result block: 74.5

Query block: Return the recorded growth value; entry: O=C(Nc1ccc(F)cc1)Nc1ccc(NC(=O)c2cc(Cl)nc3ccccc23)cc1
Result block: 83.1

Query block: Return growth (reported value) for this molecule: CC1=C(C(=O)/C=C/c2c[nH]c3ccccc23)C(c2ccccc2)NC(=S)N1 (stereo not given)
Result block: 63.9

Query block: Please indicate growth recorded for O=C1Nc2cc(-c3cccc([N+](=O)[O-])c3)ccc2/C1=C/c1ccc[nH]1
Result block: 68.6

Query block: Return reported growth. Input molecule: CCCCCN1C=C/C(=C\C(=O)n2ccc3ccccc32)c2ccccc21
Result block: 49.4

Query block: Fill in growth for record CC1(C)CC(O)CCCCCCOc2c(CN)cccc2NC(=O)c2nc(cnc2N)-c2ccc(cc2)S1(=O)=O (stereo not given)
Result block: 27.8

Query block: State its growth for this molecule: COc1ccc(C(=O)C2C(C#N)C(C#N)C3c4ccccc4C=CN23)cc1 (stereo not given)
Result block: 60.7

Query block: Tell me growth reported for COc1ccc(NC(=O)c2cc(NCc3cc(O)ccc3O)ccc2O)cc1
Result block: 65.8

Query block: Determine from records and report growth for COc1ccc(NC(N)=NCCCOc2ccc(F)cc2)cc1
Result block: 86.7

###

Exercise: for every item that follows, state its recorded growth.
system: TK-10 renal; assay: NCI-60 one-dose screen, 48 h (100 = growth as untreated, 0 = no growth, -100 = all killed); settings: 10 µM unless noted
About 83,000 compounds went through this panel and 20% of them were active in at least one assay; those are over-represented in the sample as a whole. Activity calls are given as the source filed them. Rule for the calls: active = growth percent below 10; inactive = the rest.

Query block: For the compound COc1ccc(-c2cnc3c(-c4cccc5ncccc45)cnn3c2)cc1 , give its reported growth.
Result block: 61.7% (inactive)

Query block: Fill in reported growth for this entry: O=C(/C=C/c1ccc(F)cc1)c1ccc(NC(=O)N2CCN(c3cc4c(cc3F)c(=O)c(C(=O)O)cn4C3CC3)CC2)cc1
Result block: 92.5% (inactive)

Query block: Using known records, supply growth for COc1cc(-c2cc(-c3ccc(N(C)C)cc3)nc(N3CCOCC3)c2C#N)cc(OC)c1OC
Result block: 38.4% (inactive)

Query block: Give me measured growth, please, for this compound: COc1cc(/C=N/O)nc(-c2ccccn2)c1
Result block: 35.3% (inactive)

Query block: Specify reported growth for the compound shown: COc1ccc(/C=N/NC(=O)c2cnn3c2NC(c2ccccc2)C3)cc1OC (stereo not given)
Result block: 75.6% (inactive)

Query block: Provide one value: measured growth of CN1C(=O)NC(c2ccc3c(c2)OCO3)C=C1c1ccccc1 (stereo not given)
Result block: 85% (inactive)

Query block: # return recorded growth for input CCc1ccc(-c2cn3ccnc3c(-c3ccc4ncn(Cc5ccccc5)c4c3)n2)cc1
Result block: 84.5% (inactive)

Query block: Item COc1cccc2c1c1nc3cc(C)c(C)cc3nc1n2CCN(C)C : provide growth
Result block: 52.1% (inactive)

Query block: # return recorded growth for input COc1cc(NC(C)CCCNC(=O)CCC(=O)NCCCNCCCCCCCCCCNCCCNC(=O)CCC(=O)NCCCC(C)Nc2cc(OC)cc3cccnc23)c2ncccc2c1 (stereo not given)
Result block: 100% [8 µM] (inactive)

Query block: Give a short answer stating reported growth for O=C(O)c1ccc(-c2nn(-c3ccc(C(F)(F)F)cc3)cc2CNc2ccc(Oc3ccccc3)cc2)cc1 .
Result block: 98.3% (inactive)

Reference for the values: PubChem BioAssay (NCI)
